test: NCI Yeast Anticancer Drug Screen. Data for the cln2 rad14 strain (AID 165);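 further: 0% = growth equal to vehicle treated cultures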; conditions: S. cerevisiae cln2 rad14 strain, at 50.0 µM
The panel holds about 79,000 compounds, 15% with a hit somewhere; the sample as a whole holds those more often. Activity calls are given as the source filed them. No stated cut-off is given here; in the data, active means growth inhibition above about 70%; inactive means the rest.
Possible outcomes: True = active, False = inactive

>  <COMPOUND>
CCc1ccc(NS(=O)(=O)c2ccc3ccccc3c2)cc1

>  <ASSIGNED CATEGORY>
True

$$$$
>  <COMPOUND>
Nc1nnnn1CCc1ccccc1

>  <ASSIGNED CATEGORY>
False

$$$$
>  <COMPOUND>
C=CCSc1nc2ccc(NCn3c(=S)sc4cc([N+](=O)[O-])ccc43)cc2s1

>  <ASSIGNED CATEGORY>
False

$$$$
>  <COMPOUND>
CCO/C=N/n1c(C(=O)NCCCOC)nc2ccccc2c1=O

>  <ASSIGNED CATEGORY>
False

$$$$
>  <COMPOUND>
CC(SC(C)c1ccccc1)c1ccccc1 (configuration not stated)

>  <ASSIGNED CATEGORY>
False

$$$$
>  <COMPOUND>
CCOC(=O)C1=C(NC(=O)C(c2ccccc2)c2ccccc2)OCC1

>  <ASSIGNED CATEGORY>
False

$$$$
>  <COMPOUND>
CCCC(SCC(=O)O)SCC(=O)O

>  <ASSIGNED CATEGORY>
False

$$$$
>  <COMPOUND>
Cc1cc[n+](C2=C([O-])C3=C(C(=O)C2=O)C2c4ccccc4C3c3ccccc32)c(C)c1

>  <ASSIGNED CATEGORY>
True

$$$$
>  <COMPOUND>
CC(C)(CO)NC(=O)c1ccccc1Br

>  <ASSIGNED CATEGORY>
False

$$$$
>  <COMPOUND>
CC1CCCCN1S(=O)(=O)N(C)C (configuration not stated)

>  <ASSIGNED CATEGORY>
False

$$$$
>  <COMPOUND>
COc1cc(N=Nc2ccccc2)cc(/C=N\NC(=S)Nc2cccc(C)c2)c1O

>  <ASSIGNED CATEGORY>
False

$$$$
>  <COMPOUND>
CCc1ccc(OC/C=C(\C)CCC2OC2(C)CC)cc1 (configuration not stated)

>  <ASSIGNED CATEGORY>
False

$$$$

###

Consider the following compounds and their measured growth inhibition readings.
experiment: NCI Yeast Anticancer Drug Screen. Data for the sgs1 mgt1 strain (AID 161);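 further: 0% = growth of cultures given vehicle only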; conditions: S. cerevisiae sgs1 mgt1 strain, at 50.0 µM, active compounds read high
About 79,000 compounds went through this panel and 15% of them were active in at least one assay; those are over-represented in the sample as a whole.

>  <COMPOUND>
O=C1Nc2ccccc2C1=O

>  <growth inhibition [%]>
-31.8

$$$$
>  <COMPOUND>
c1ccc2c(c1)ccc1c2ccc2c1cc1ccccn12

>  <growth inhibition [%]>
-13.2

$$$$
>  <COMPOUND>
C/C(=C1\SC(=S)N(C2OC(CO)C(O)C(O)C2O)C1=O)c1ccco1 (configuration not stated)

>  <growth inhibition [%]>
-33.2

$$$$
>  <COMPOUND>
CCC(O)(c1ccccc1)C(O)c1ccccc1 (configuration not stated)

>  <growth inhibition [%]>
-4.4

$$$$
>  <COMPOUND>
CC(=O)C1CN(C)CCC1=O (configuration not stated)

>  <growth inhibition [%]>
-19.8

$$$$
>  <COMPOUND>
CCOC(=O)c1cc2cc(Br)ccc2[nH]1

>  <growth inhibition [%]>
8.5

$$$$
>  <COMPOUND>
CN(C)c1ccc(C=C2/C(=N\O)c3ccccc3/C2=N/O)cc1

>  <growth inhibition [%]>
39

$$$$

Value source: PubChem BioAssay (NCI)
